Taken from PubChem BioAssay (NCI).

tested on: HCC-2998 colon; experiment: NCI-60 one-dose screen, 48 h; conditions: 10 µM unless noted
Compounds without any hit were thinned out: in the full panel of roughly 83,000, 20% have a hit. Activity calls are given as the source filed them. The calls were made as follows: active = growth percent below 10; inactive = the rest.
Please answer using one outcome listed in active, inactive

Please review the following examples before continuing.
O=C(O)C1C(C(=O)O)C2(Cl)C(Cl)=C(Cl)C1(Cl)C2(Cl)Cl (centres undefined)	inactive
O=C1C=C(N2CC2)c2ccccc2C1=O	inactive
Cc1ccc(P(=O)(O)O)cc1	inactive
O=C(NC1=NCC[Se]1)c1ccccc1O	inactive
C=CC[PH+](c1ccccc1)c1ccccc1.C=CC[PH+](c1ccccc1)c1ccccc1.[Pt+2].[S-]c1ncccn1.[S-]c1ncccn1	inactive

What classification did CC[C@H](C)[C@H](NC(=O)c1ncccn1)C(=O)N(C)[C@H](C[C@@H](OC(C)=O)c1nc(C(=O)N[C@@H](Cc2ccccc2)C[C@H](C)C(=O)OC)cs1)C(C)C end up with in this test?
inactive

# lookup: test call for C[C@]12CCc3sc(Nc4ccc(F)cc4)nc3C1=CC[C@@H]1[C@@H]2CC[C@]2(C)C(=O)CC[C@@H]12
inactive

Call for entry COc1cc(C2C3=C(CCCC3=O)N(CCO)c3cc4c(cc32)CCC4)cc(OC)c1OC (centres undefined) :
inactive

Write down the call the test reported for this compound. Item: CCOP(=O)(OCC)C(=O)N(CC)CC
inactive

What outcome does the record of this test show for CC1OC(=O)C(C(C)C)NC(=O)C(C(C)C)OC(=O)C(C(C)C)NC(=O)C(C)OC(=O)C(C(C)C)NC(=O)C(C(C)C)OC(=O)C(C(C)C)NC(=O)C(C)OC(=O)C(C(C)C)NC(=O)C(C(C)C)OC(=O)C(C(C)C)NC1=O (centres undefined) ?
active

What did this assay record as the result for Nc1ccc(S(=O)(=O)F)cc1 ?
inactive
